# TEST: Toxicity liver stage against HepG2, at 10uM
# Assay type: cell-based
# Set-up: test concentration 10 uM, cell line HepG2-A16-CD81EGFP
# SETUP CONDITIONS: human, HepG2-A16-CD81EGFP cells; read-out: INHIBITION
In this section, each of the compounds is paired with its reported cytotoxicity at 10 µM.
Response body: numeric value in %, unit text excluded.

Example entries begin here.
Cc1noc(C)c1CN1CC[C@H]2OCC[C@@H](C(=O)N3CCCO3)[C@H]2C1	2
Cn1cc(CCC(=O)N2CCCC(n3cncn3)C2)cn1 (centres undefined)	-15.1

Value of measured cytotoxicity at 10 µM for the entry CC(C)(C)c1cn2c(n1)C(CNCc1ccccn1)CCC2 (centres undefined) : -9.5

Value of measured cytotoxicity at 10 µM for the entry CCS(=O)(=O)c1ccc(N2CCC(NC(C)=O)CC2)cc1 : 10.6

Value of measured cytotoxicity at 10 µM for the entry CS(=O)(=O)N1CCc2sc(C(=O)NCc3ccccc3)cc21 : 0.997

Value of measured cytotoxicity at 10 µM for the entry COCCOCCC(=O)N1CCC(c2ccccc2C)C1 (centres undefined) : -9.46

Value of measured cytotoxicity at 10 µM for the entry Cc1cc(-c2cnn(CCNC(=O)c3snnc3C)c2C2CC2)on1 : -7.16

Value of measured cytotoxicity at 10 µM for the entry CC(=O)C1(c2ccccc2)CCN(C(=O)CC2CNCCO2)CC1 (centres undefined) : -4.46

Value of measured cytotoxicity at 10 µM for the entry CCc1nc(C2CCCN(C(=O)C(C)(C)NS(C)(=O)=O)C2)no1 (centres undefined) : -12.1

Value of measured cytotoxicity at 10 µM for the entry CCOCC1CCN(C(=O)Nc2ccc(-c3csnn3)cc2)C1 (centres undefined) : 13.7

Value of measured cytotoxicity at 10 µM for the entry CN(C)S(=O)(=O)N1CCOC(c2cccc(-c3cncnc3)n2)C1 (centres undefined) : 3.71

Value of measured cytotoxicity at 10 µM for the entry CN(CC(F)(F)F)C(=O)C1CSCN1C(=O)OC(C)(C)C (centres undefined) : -0.265

Value of measured cytotoxicity at 10 µM for the entry Nc1nc(CCCNC(=O)c2ccccc2C2CCNC2)cs1 (centres undefined) : -3.06

Value of measured cytotoxicity at 10 µM for the entry N#CC1COCCN1C(=O)c1ccc2[nH]cnc2c1 (centres undefined) : -2.87

Value of measured cytotoxicity at 10 µM for the entry O=C(COc1coc(CN2CCCCC2)cc1=O)Nc1cccc(Cl)c1 : -1.89

Value of measured cytotoxicity at 10 µM for the entry Cc1noc(C)c1CN(C)C(=O)c1ccc(NC2CC2)nc1 : -4.94

Value of measured cytotoxicity at 10 µM for the entry CN(C)c1ncccc1CNS(=O)(=O)c1cc(F)ccc1F : 5.67

Value of measured cytotoxicity at 10 µM for the entry CC(C)n1cnnc1CNC(=O)CCCOc1ccccc1F : -4.56

Value of measured cytotoxicity at 10 µM for the entry COc1ccc(NCCC(=O)NCc2cccnc2N(C)C)cc1 : -2.06

Value of measured cytotoxicity at 10 µM for the entry Cc1cc(NC2CC3(CCN(Cc4cscn4)C3)C2)ncn1 (centres undefined) : -2.13

Value of measured cytotoxicity at 10 µM for the entry Nc1nnnn1NCc1cccc(Cl)c1Cl : 11.5

Values from ChEMBL document CHEMBL4513216
